Hello, the source for this data is PubChem BioAssay (NCI), in case you need it.

# System: DU-145 prostate
# test-details: NCI-60 one-dose screen, 48 h
# condition-notes: 10 µM unless noted
This is part of a sample that, as a whole, favours compounds with a hit. Of some 83,000 tested, about 20% had one in any assay. Calls of active or inactive are those of the source. The calls were made as follows: active = growth percent below 10; inactive = the rest.
Answer with one of the outcomes given here: active, inactive

For this compound, state the assay outcome: "COC(=O)[C@@H](C)C[C@H](Cc1ccccc1)NC(=O)c1csc([C@@H](C[C@H](C(C)C)N(C)C(=O)[C@@H](NC(=O)[C@H]2CCCCN2C)C(C(F)(F)F)C(F)(F)F)OC(C)=O)n1"
inactive

For this compound, state the assay outcome: "COc1ccc2c(c1)c(-c1nc(-c3c[nH]c4ncccc34)cs1)cn2CCN1CCOCC1"
inactive

For this compound, state the assay outcome: O=C(CC1(O)C(=O)N(Cc2ccccc2)c2ccc(Br)cc21)c1ccc(C(=O)NCC2CCC3(CC2)OOC2(CCCCC2)OO3)cc1 (configuration not stated)
active

For this compound, state the assay outcome: "CNC(=O)Oc1ccc(N(C)C)cc1C(C)C"
inactive

For this compound, state the assay outcome: NC(=O)c1c(Br)n(C2OC(CO)C(O)C2O)c2ncnc(N)c12 (configuration not stated)
active

For this compound, state the assay outcome: "CC1(C)C(C(=O)c2cn(CCCCF)c3ccccc23)C1(C)C"
inactive

For this compound, state the assay outcome: "COC(=O)[C@@H](C)C[C@H](Cc1ccccc1)NC(=O)c1csc([C@@H](C[C@H](C(C)C)N(C)C(=O)[C@@H](NC(=O)C23CC(NC(C)=O)(C2)C3)C2CC2)OC(C)=O)n1"
inactive

* * *

# System: RPMI-8226 leukemia
# test-details: NCI-60 one-dose screen, 48 h (100 = growth as untreated, 0 = no growth, -100 = all killed)
# condition-notes: 10 µM unless noted
Compounds without any hit were thinned out: in the full panel of roughly 83,000, 20% have a hit. Active and inactive are the calls of the source. Rule for the calls: active = growth percent below 10; inactive = the rest.
Could you please report measured growth for the items listed next?

Recorded growth (compound O=C1OCCC1Br (centres undefined) ): 97.2% (inactive)

Recorded growth (compound COc1cc(C=C2c3ccccc3C(=O)c3ccccc32)ccc1OCCCCOc1cc2c(cc1OC)C(=O)N1CCCC1C=N2 (centres undefined) ): -10% (active)

Recorded growth (compound "CNC(=O)Oc1ccc(C(C)(C)C)cc1OC(=O)NC" ): 95.5% (inactive)

Recorded growth (compound "O=C(c1cccc(O)c1O)c1cn(Cc2ccc(F)cc2)c2cccc(O)c12" ): 9.16% (active)

Recorded growth (compound "COC(=O)[C@@H](C)C[C@H](Cc1ccccc1)NC(=O)c1csc([C@@H](C[C@H](C(C)C)N(C)C(=O)[C@@H](NC(=O)C23CC(NC(C)=O)(C2)C3)C2CC2)OC(C)=O)n1" ): 12% (inactive)

Recorded growth (compound CCOC(=O)C(Cc1ccc(N(CCCl)CCCl)cc1)NC(=O)C(CC(C)C)NC(C)=O (centres undefined) ): 21% (inactive)

Recorded growth (compound C[C@]12CC[C@H]3[C@@H](C[C@@H]4SC(Nc5ccccc5)=N[C@@]45CC(O)CC[C@]35C)[C@@H]1CCC2O (some centres undefined) ): -32.3% (active)

Recorded growth (compound "COC(=O)[C@@H](C)C[C@H](Cc1ccccc1)NC(=O)c1csc(CC[C@H](C(C)C)N(C)C(=O)[C@@H](NC(=O)[C@H]2CCCCN2C)C(C)C)n1" ): 19.8% (inactive)

Recorded growth (compound COc1ccc(C2=CC(c3ccc(OC)c(OC)c3)c3c(c4ccccc4oc3=O)O2)cc1OC (centres undefined) ): -48.5% (active)

* * *

# Test system: CCRF-CEM leukemia
# test-details: NCI-60 one-dose screen, 48 h (100 = growth as untreated, 0 = no growth, -100 = all killed)
# condition-notes: 10 µM unless noted
This is part of a sample that, as a whole, favours compounds with a hit. Of some 83,000 tested, about 20% had one in any assay.
observable: growth (%)
Expressed in %, but write only the number.

Recorded growth (molecule "COC(=O)[C@@H](C)C[C@H](Cc1ccccc1)NC(=O)c1nc([C@@H](C[C@H](C(C)C)N(C)C(=O)[C@@H](NC(=O)[C@H]2C[C@H](O)CCN2C)C(C)C)OC(C)=O)sc1C(C)C" ): 4.78

Recorded growth (molecule Cn1cccc1C1CC(=O)N(CCC[Se]C#N)C1=O (centres undefined) ): 13.8

Recorded growth (molecule "C/C(CC(C)(C)N1CC1)=N\NC(=O)Nc1cccc2ccccc12" ): 82.3

Recorded growth (molecule O=[N+]([O-])CC(O)C(Cl)(Cl)Cl (centres undefined) ): -21.1

Recorded growth (molecule "CCCCCCCCOC(=O)CCN1CC1" ): 110

Recorded growth (molecule OCCNC(Cc1ccccc1)c1ccc2c(c1)OCO2 (centres undefined) ): 111

Recorded growth (molecule O=C1CC2(CC3(Cl)C(Cl)=C(Cl)C2(Cl)C3(Cl)Cl)C(=O)O1 (centres undefined) ): 114

Recorded growth (molecule "C[C@]12CC[C@@H]3c4ccc(Oc5nc(N6CC6)nc(N6CC6)n5)cc4CC[C@H]3[C@@H]1CCC2=O" ): 3.37

Recorded growth (molecule "Cn1cc(-c2csc(-c3cn(CCCCN4CCCCC4)c4ccc(F)cc34)n2)c2cccnc21" ): -60.5

* * *

# System: RPMI-8226 leukemia
# test-details: NCI-60 one-dose screen, 48 h (100 = growth as untreated, 0 = no growth, -100 = all killed)
# condition-notes: 10 µM unless noted
This is part of a sample that, as a whole, favours compounds with a hit. Of some 83,000 tested, about 20% had one in any assay.
observable: growth (%)
Expressed in %, but write only the number.

Recorded growth (compound "COC(=O)CCC1=C(C)c2cc3[n-]c(cc4nc(cc5[n-]c(cc1n2)c(CCC(=O)OC)c5C)C=C4C)cc3C.[Cd+2]" ): -1.53

Recorded growth (compound "COc1ccc(S(=O)(=O)Nc2c(/C=C\c3cc(OC)c(OC)c(OC)c3)ccc(OC)c2O)cc1OC" ): 25.4

Recorded growth (compound "CC[C@H](C)[C@H](NC(=O)NC(C)(C)C)C(=O)N(C)[C@H](C[C@@H](OC(C)=O)c1nc(C(=O)N[C@@H](Cc2ccccc2)C[C@H](C)C(=O)OC)cs1)C(C)C" ): -3.75

Recorded growth (compound "C[C@]12CCc3sc(-c4cccc(F)c4)nc3C1=CC[C@@H]1[C@@H]2CC[C@]2(C)C(=O)CC[C@@H]12" ): -2.88

* * *

# Tested on: HL-60(TB) leukemia
# test-details: NCI-60 one-dose screen, 48 h (100 = growth as untreated, 0 = no growth, -100 = all killed)
# condition-notes: 10 µM unless noted
The panel holds about 83,000 compounds, 20% with a hit somewhere; the sample as a whole holds those more often.
observable: growth (%)
Expressed in %, but write only the number.

Recorded growth (compound "Clc1cccc(NCOOC2(OOCNc3cccc(Cl)c3)CCCCC2)c1" ): 39.1

Recorded growth (compound "Cc1ccc(Nc2nc3c(s2)C2=CC[C@@H]4[C@H](CC[C@]5(C)C(=O)CC[C@@H]45)[C@@]2(C)CC3)cc1" ): 34

Recorded growth (compound "COc1cc2c(=O)n(C3CCCCCCC3)c3c4cc[nH]c4ncc3c2cc1OC" ): 57.6

* * *

# Tested on: SNB-19 CNS
# test-details: NCI-60 one-dose screen, 48 h (100 = growth as untreated, 0 = no growth, -100 = all killed)
# condition-notes: 10 µM unless noted
Compounds without any hit were thinned out: in the full panel of roughly 83,000, 20% have a hit.
Note to self: growth under 50% means 1, ties and anything higher get -1.

Is the reported growth for O=[N+]([O-])CC(c1ccccc1Cl)c1c(-c2ccccc2)[nH]c2ccccc12 (stereo not given) strictly below 50%?
1

Is the reported growth for "CC(=O)O[C@H](C[C@H](C(C)C)N(C)C(=O)[C@@H](NC(=O)[C@H]1CCCCN1C)C(C)C)c1nc(C(=O)N[C@@H](Cc2ccccc2)C[C@H](C)C(=O)O)c(C(C)C)s1" strictly below 50%?
1

Is the reported growth for CC(C)=CC1C(C(=O)OCc2cccc(Oc3ccccc3)c2)C1(C)C (stereo not given) strictly below 50%?
-1

Is the reported growth for "C=CCc1cc2c(cc1OCC)OCO2" strictly below 50%?
-1

Is the reported growth for "COc1ccc(/C=C\c2cc(OC)c(OC)c(OC)c2)cc1OCC(=O)Nc1nc2ccc(C(F)(F)F)cc2s1" strictly below 50%?
1

Is the reported growth for "CCOC(=O)[C@@H](C)C[C@H](Cc1ccccc1)NC(=O)c1csc([C@@H](C[C@H](C(C)C)N(C)C(=O)[C@@H](NC(=O)[C@H]2C[C@H](O)CCN2C)C(C)C)OC(C)=O)n1" strictly below 50%?
1

Is the reported growth for CC(C)OC(=O)[C@H](C)NP(=O)(Oc1ccccc1)C1CCCN(O)C1=O (stereo not given in full) strictly below 50%?
-1

Is the reported growth for O=C(O)C1C(C(=O)O)C2(Cl)C(Cl)=C(Cl)C1(Cl)C2(Cl)Cl.[Hg] (stereo not given) strictly below 50%?
-1

Is the reported growth for "COc1ccc(N(CC(=O)NCCC[Te]c2ccccc2)C(=O)CNC(=O)OC(C)(C)C)cc1" strictly below 50%?
1

Is the reported growth for "CCCCCCCCOC(=O)CCN1CC1" strictly below 50%?
-1
